Taken from ChEMBL document CHEMBL1158870.

- Test system: MDA-MB-231
- Assay Summary: Cytotoxicity against human MDA-MB-231 cells by SRB assay
- Type: functional

Entry Smiles	Test Target	Measurement Unit	GI50
CC(=O)OC[C@H]1O[C@@H](O[C@@H]2C[C@H]3C(C)(C)[C@H](OC(C)=O)CC[C@]3(C)[C@H]3CCC4=C([C@@H](C)C[C@@H](O)[C@H](O)C(C)(C)O)CC[C@@]4(C)[C@@]32C)[C@H](O)[C@@H](O)[C@@H]1O	MDA-MB-231	µM	11.5
CC(=O)OC[C@H]1O[C@@H](O[C@@H]2C[C@H]3C(C)(C)[C@H](OC(C)=O)CC[C@]3(C)[C@H]3CC[C@@H]4[C@]5(CC[C@@]4(C)[C@@]32C)O[C@@H]([C@H](O)C(C)(C)O)C[C@@H]5C)[C@H](O)[C@@H](O)[C@@H]1O	MDA-MB-231	µM	10.2
C=C1[C@@H](O)C[C@@]23CC[C@@H]4[C@@]5(C)CC[C@@H](OC(C)=O)C(C)(C)[C@@H]5C[C@@H](O[C@@H]5O[C@H](COC(C)=O)[C@@H](O)[C@H](O)[C@H]5O)[C@@]4(C)C2=CC[C@H]3[C@H]1C	MDA-MB-231	µM	7.76

###

- Test system: SW-620
- Assay Summary: Cytotoxicity against human SW620 cells by SRB assay
- Type: functional
Attribute Measured: GI50 (µM)

Entry Smiles	Test Target	Quantitative Readout
C=C1[C@@H](O)C[C@@]23CC[C@@H]4[C@@]5(C)CC[C@@H](OC(C)=O)C(C)(C)[C@@H]5C[C@@H](O[C@@H]5O[C@H](COC(C)=O)[C@@H](O)[C@H](O)[C@H]5O)[C@@]4(C)C2=CC[C@H]3[C@H]1C	SW-620	7.24
C=C(C)[C@@H](O)[C@H](O)C[C@H](C)[C@@H]1CC[C@]2(C)C1=CC[C@@H]1[C@@]3(C)CC[C@@H](OC(C)=O)C(C)(C)[C@@H]3C[C@@H](O[C@@H]3O[C@H](COC(C)=O)[C@@H](O)[C@H](O)[C@H]3O)[C@]12C	SW-620	3.02

###

- Test system: UACC-62
- Assay Summary: Cytotoxicity against human UACC62 cells by SRB assay
- Format: functional
GI50: recorded values

Entry Smiles	GI50 (µM)
CC(=O)OC[C@H]1O[C@@H](O[C@@H]2C[C@H]3C(C)(C)[C@H](OC(C)=O)CC[C@]3(C)[C@H]3CCC4=C([C@@H](C)C[C@@H](O)[C@H](O)C(C)(C)O)CC[C@@]4(C)[C@@]32C)[C@H](O)[C@@H](O)[C@@H]1O	12.6
COC(C)(C)[C@@H](O)[C@H]1C[C@H](C)[C@@]2(CC[C@]3(C)[C@@H]2CC[C@@H]2[C@@]4(C)CC[C@@H](OC(C)=O)C(C)(C)[C@@H]4C[C@@H](O[C@@H]4O[C@H](COC(C)=O)[C@@H](O)[C@H](O)[C@H]4O)[C@]23C)O1	5.25
COC(C)(C)[C@@H](O)[C@H](O)C[C@H](C)C1=C2CC[C@@H]3[C@@]4(C)CC[C@@H](OC(C)=O)C(C)(C)[C@@H]4C[C@@H](O[C@@H]4O[C@H](COC(C)=O)[C@@H](O)[C@H](O)[C@H]4O)[C@@]3(C)[C@]2(C)CC1	8.71

###

- System: SK-MEL-5
- Assay Summary: Cytotoxicity against human SK-MEL-5 cells by SRB assay
- Assay type: functional
GI50: recorded values
Attribute Measured: GI50

Entry Smiles	Result
C=C1[C@@H](O)C[C@@]23CC[C@@H]4[C@@]5(C)CC[C@@H](OC(C)=O)C(C)(C)[C@@H]5C[C@@H](O[C@@H]5O[C@H](COC(C)=O)[C@@H](O)[C@H](O)[C@H]5O)[C@@]4(C)C2=CC[C@H]3[C@H]1C	6.03 µM
CC(=O)OC[C@H]1O[C@@H](O[C@@H]2C[C@H]3C(C)(C)[C@H](OC(C)=O)CC[C@]3(C)[C@H]3CCC4=C([C@@H](C)C[C@@H](O)[C@H](O)C(C)(C)O)CC[C@@]4(C)[C@@]32C)[C@H](O)[C@@H](O)[C@@H]1O	16.2 µM
CC(=O)OC[C@H]1O[C@@H](O[C@@H]2C[C@H]3C(C)(C)[C@H](OC(C)=O)CC[C@]3(C)[C@H]3CC[C@@H]4[C@]5(CC[C@@]4(C)[C@@]32C)O[C@@H]([C@H](O)C(C)(C)O)C[C@@H]5C)[C@H](O)[C@@H](O)[C@@H]1O	10.7 µM
C=C(C)[C@@H](O)[C@H](O)C[C@H](C)[C@@H]1CC[C@]2(C)C1=CC[C@@H]1[C@@]3(C)CC[C@@H](OC(C)=O)C(C)(C)[C@@H]3C[C@@H](O[C@@H]3O[C@H](COC(C)=O)[C@@H](O)[C@H](O)[C@H]3O)[C@]12C	1.91 µM

###

- Test system: HCT-15
- Assay Summary: Cytotoxicity against human HCT15 cells by SRB assay
- Format: functional
TGI: recorded values

Compound	TGI [µM]
CC(=O)OC[C@H]1O[C@@H](O[C@@H]2C[C@H]3C(C)(C)[C@H](OC(C)=O)CC[C@]3(C)[C@H]3CC[C@@]45C[C@H](O)C[C@H](C)[C@@H]4CC=C5[C@@]32C)[C@H](O)[C@@H](O)[C@@H]1O	22.3
CC(=O)OC[C@H]1O[C@@H](O[C@@H]2C[C@H]3C(C)(C)[C@H](OC(C)=O)CC[C@]3(C)[C@H]3CCC4=C([C@@H](C)C[C@@H](O)[C@H](O)C(C)(C)O)CC[C@@]4(C)[C@@]32C)[C@H](O)[C@@H](O)[C@@H]1O	30.8
C=C(C)[C@@H](O)[C@H](O)C[C@H](C)[C@@H]1CC[C@]23C[C@]12CC[C@@H]1[C@@]2(C)CC[C@@H](OC(C)=O)C(C)(C)[C@@H]2C[C@@H](O[C@@H]2O[C@H](COC(C)=O)[C@@H](O)[C@H](O)[C@H]2O)[C@]13C [CUMINGIANOSIDE D]	10.4
C=C1[C@@H](O)C[C@@]23CC[C@@H]4[C@@]5(C)CC[C@@H](OC(C)=O)C(C)(C)[C@@H]5C[C@@H](O[C@@H]5O[C@H](COC(C)=O)[C@@H](O)[C@H](O)[C@H]5O)[C@@]4(C)C2=CC[C@H]3[C@H]1C	27.5

###

GI50: recorded values
- Tested on: UACC-62
- Assay Summary: Cytotoxicity against human UACC62 cells by SRB assay
- Assay type: functional

Entry Smiles	Measurement Unit	GI50
CC(=O)OC[C@H]1O[C@@H](O[C@@H]2C[C@H]3C(C)(C)[C@H](OC(C)=O)CC[C@]3(C)[C@H]3CC[C@@]45C[C@H](O)C[C@H](C)[C@@H]4CC=C5[C@@]32C)[C@H](O)[C@@H](O)[C@@H]1O	µM	5.25
C=C(C)[C@@H](O)[C@H](O)C[C@H](C)[C@@H]1CC[C@]2(C)C1=CC[C@@H]1[C@@]3(C)CC[C@@H](OC(C)=O)C(C)(C)[C@@H]3C[C@@H](O[C@@H]3O[C@H](COC(C)=O)[C@@H](O)[C@H](O)[C@H]3O)[C@]12C	µM	1.51
C=C1[C@@H](O)C[C@@]23CC[C@@H]4[C@@]5(C)CC[C@@H](OC(C)=O)C(C)(C)[C@@H]5C[C@@H](O[C@@H]5O[C@H](COC(C)=O)[C@@H](O)[C@H](O)[C@H]5O)[C@@]4(C)C2=CC[C@H]3[C@H]1C	µM	7.08
CC(=O)OC[C@H]1O[C@@H](O[C@@H]2C[C@H]3C(C)(C)[C@H](OC(C)=O)CC[C@]3(C)[C@H]3CC[C@@H]4[C@]5(CC[C@@]4(C)[C@@]32C)O[C@@H]([C@H](O)C(C)(C)O)C[C@@H]5C)[C@H](O)[C@@H](O)[C@@H]1O	µM	6.31

###

GI50: recorded values
- Tested on: EKVX
- Assay Summary: Cytotoxicity against human EKVX cells by SRB assay
- Assay type: functional
Attribute Measured: GI50 (µM)

Entry Smiles	Quantitative Readout
C=C1[C@@H](O)C[C@@]23CC[C@@H]4[C@@]5(C)CC[C@@H](OC(C)=O)C(C)(C)[C@@H]5C[C@@H](O[C@@H]5O[C@H](COC(C)=O)[C@@H](O)[C@H](O)[C@H]5O)[C@@]4(C)C2=CC[C@H]3[C@H]1C	10
CC(=O)OC[C@H]1O[C@@H](O[C@@H]2C[C@H]3C(C)(C)[C@H](OC(C)=O)CC[C@]3(C)[C@H]3CCC4=C([C@@H](C)C[C@@H](O)[C@H](O)C(C)(C)O)CC[C@@]4(C)[C@@]32C)[C@H](O)[C@@H](O)[C@@H]1O	17
CC(=O)OC[C@H]1O[C@@H](O[C@@H]2C[C@H]3C(C)(C)[C@H](OC(C)=O)CC[C@]3(C)[C@H]3CC[C@@]45C[C@H](O)C[C@H](C)[C@@H]4CC=C5[C@@]32C)[C@H](O)[C@@H](O)[C@@H]1O	7.08
